measurement description: Cytotoxicity against human HL60 cells assessed as cell growth inhibition after 48 hrs by MTT assay
Assay type: functional
assay conditions: HL-60, 48 h
Assignment: determine reported GI50 for the given molecules.
Numbers only, in µM.

Worked cases, GI50 given:
[[record]]
sample_smiles = "N#CCc1ccc(Nc2ncnc3ccc(-c4cncc5ccccc45)cc23)cc1"
scale_unit = "µM"
numeric_result = 10

[[record]]
sample_smiles = "N#CCc1ccc(Nc2ncnc3ccc(-c4ccccc4C=O)cc23)cc1"
scale_unit = "µM"
numeric_result = 42

[[record]]
sample_smiles = "N#CCc1ccc(Nc2ncnc3ccc(-c4cc5ccccc5s4)cc23)cc1"
scale_unit = "µM"
numeric_result = 14

[[record]]
sample_smiles = "N#CCc1ccc(Nc2ncnc3ccc(-c4cccc(O)c4)cc23)cc1"
scale_unit = "µM"
numeric_result = 24

[[record]]
sample_smiles = "C=Cc1ccc(-c2ccc3ncnc(Nc4ccc(CC#N)cc4)c3c2)cc1"
scale_unit = "µM"
numeric_result = 16


Provide GI50 for all items below, preserving their order.
1. N#CCc1ccc(Nc2ncnc3ccc(-c4cccc5c4oc4ccccc45)cc23)cc1
2. CC(=O)c1ccc(-c2ccc3ncnc(Nc4ccc(CC#N)cc4)c3c2)cc1
3. N#CCc1ccc(Nc2ncnc3ccc(-c4ccc5ccccc5c4)cc23)cc1
4. CCOc1ccc(-c2ccc(-c3ccc4ncnc(Nc5ccc(CC#N)cc5)c4c3)cc2)cc1
5. N#CCc1ccc(Nc2ncnc3ccc(-c4cnc5ccccc5c4)cc23)cc1
6. N#CCc1ccc(Nc2ncnc3ccc(-c4ccccc4)cc23)cc1

stdout:
[12, 28, 25, 16, 44, 23]
